- study-system: T1, CGRP receptor (membranes prepared from SK-N-MC cells) (UniProt Q16602 23-461; O60894 27-148, limits assumed)
- T1 construct: whole, on cells; Endogenous receptor in SK-N-MC cell membranes; also called CGRP receptors; CGRP RBA
- T1 sequence (Q16602 23-461 limits assumed, chain 1 of 2): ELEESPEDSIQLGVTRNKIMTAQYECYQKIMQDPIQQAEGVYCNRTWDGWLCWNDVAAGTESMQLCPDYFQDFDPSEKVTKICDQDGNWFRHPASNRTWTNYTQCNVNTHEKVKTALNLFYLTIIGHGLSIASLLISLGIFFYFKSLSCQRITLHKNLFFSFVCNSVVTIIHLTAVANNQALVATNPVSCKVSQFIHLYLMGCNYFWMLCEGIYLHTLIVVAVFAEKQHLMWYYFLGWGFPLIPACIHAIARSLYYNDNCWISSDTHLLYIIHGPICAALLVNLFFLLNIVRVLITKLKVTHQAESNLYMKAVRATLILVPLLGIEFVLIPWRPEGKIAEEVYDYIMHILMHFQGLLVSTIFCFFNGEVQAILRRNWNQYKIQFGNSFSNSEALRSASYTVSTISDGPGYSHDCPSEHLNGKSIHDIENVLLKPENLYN
- T1 sequence (O60894 27-148 limits assumed, chain 2 of 2): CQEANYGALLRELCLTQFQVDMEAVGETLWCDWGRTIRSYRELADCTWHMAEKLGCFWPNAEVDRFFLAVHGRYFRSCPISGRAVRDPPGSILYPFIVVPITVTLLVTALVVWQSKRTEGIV
- protocol-details: radioligand displacement, 125I-hCGRP, SK-N-MC cell membranes
pIC50: −log10 of the molar value. Ends that are not written are not given here.
# Lookup of reported pIC50 keyed by entry

binder | pIC50
CVLGTCQVQNLSHRLWQLRQESAPVEPSSPHSY-NH2 (ends and bridges not checked) [AFP-6 analog SEQ ID NO: 19] | 7.90
RVGCVLGTCQVQNLSHRLWQLMGPAGRQDSAPVDPSSPHSY-NH2 (ends and bridges not checked) [AFP-6 analog SEQ ID NO: 10] | 8.85
VGCVLGTCQVQNLSHRLWQLRQDSAPVDPSSPHSY-NH2 (ends and bridges not checked) [AFP-6 analog SEQ ID NO: 18] | 8.44
CVLGTCQVQNLSHRLWQLMGPAGRQDSAPVDPSSPHSY-NH2 (ends and bridges not checked) [AFP-6 analog SEQ ID NO: 12] | 8.66
GCNTATCQVQNLSHRLWQLRQDSAPVDPSSPHSY-NH2 (ends and bridges not checked) [AFP-6 analog SEQ ID NO: 31] | 7.74
